# run_description: Apparent permeability of the compound across dog RRCK cells by MDCK-LE assay
recorded_metric: Papp (×10⁻⁶ cm/s)

Take a look at these entries with their results.
// lookup Papp for CN(C)C[C@@H](OC(=O)N1Cc2c(NC(=O)C3(C(F)(F)F)CC3)n[nH]c2C1(C)C)c1ccccc1
15

Query: Papp; subject: COc1ccc(-c2cc3c(S(=O)(=O)O)c[nH]c3cc2Cl)cc1
2.3

A. CCC[C@H](Oc1cc(C)c(-n2cc(C(F)(F)F)cn2)c(C)c1)c1ccc(C(=O)NCCC(=O)O)cc1
B. O=C(NC1CC1)c1nc2cccnn2c1-c1ccc2ncnn2c1
Lab notebook, comparison: A versus B , higher Papp goes to which? Provide the label of your selected option as the answer.
B

----------
# run_description: Drug concentration in total heart in Wistar Han rat at 1 to 2 mg/kg, iv infused for 10 to 20 hrs by LC-MS/MS analysis
# cond: in vivo
recorded_metric: Ct (ng/mL)

Would you please look over these solved cases?
Endpoint output: Ct of CC(C)n1ncc2c1C(=O)CC1(CCN(C(=O)c3ccc4[nH]nc(C(N)=O)c4c3)CC1)C2 . Value?
62

Would you kindly share the measured Ct for CC(C)(CC1Cc2ccccc2C1)NC[C@@H](O)COc1cc(C2CC3CC2C2C(C(=O)O)C32)ccc1C#N (stereo not given in full) ?
86

# query: Ct of entry COCCCN1C[C@H](C)N(C(=O)N2Cc3c(NC(=O)c4ccccn4)n[nH]c3C2(C)C)C[C@H]1C
110

A. Cc1nc([C@@H]2CCOC2)c2c(N3CCc4c(c(C5CC5)nn4C)C3)ncnn12
B. O=C(NC(c1ccccc1)c1ccccc1)C1CC1
Which is greater in Ct, the first item A or the second item B ? # reply format: chosen label
B

----------
# run_description: Fraction unbound in Wistar Han rat skeletal muscle at 2 uM incubated for 6 hrs by equilibrium dialysis method
recorded_metric: fraction unbound at 6 h, 2 µM

For orientation, consider the following solved cases.
Please report the recorded fraction unbound at 6 h, 2 µM for Cc1nc([C@@H]2CCOC2)c2c(N3CCc4c(c(C5CC5)nn4C)C3)ncnn12 .
0.23

Report fraction unbound at 6 h, 2 µM for Cc1nc2cc(-c3cc(F)cc(C#N)c3)ccc2s1 please.
0.0047

Requested field: fraction unbound at 6 h, 2 µM. Item: O=C(NC1CC1)c1nc2cccnn2c1-c1ccc2ncnn2c1
0.304

Need fraction unbound at 6 h, 2 µM, item COc1cc2c(OC[C@H]3NC(=O)[C@@H]4C[C@]34C)nccc2cc1C(N)=O
0.403

A. Oc1noc2cc(Cl)c(Cl)cc12
B. Cc1ccc(NC(=O)c2cc(Oc3ccc(S(C)(=O)=O)cc3)c3c(c2)OC(C)(C)C3)nc1
Between A and B , which one has the lower reported fraction unbound at 6 h, 2 µM value? # reply format: chosen label
B

I. CCCn1cnc(C[C@H](CCCN)C(=O)O)c1
II. COc1ccc(Cc2cc([C@@H]3OC4(COC4)[C@@H](O)[C@H](O)[C@H]3O)ccc2C)cc1
Min fraction unbound at 6 h, 2 µM? I | II Your choice should be expressed through its label.
II
(II: 0.114, I: 0.676)

----------
# run_description: Fraction unbound in Wistar Han rat white adipose tissue at 2 uM incubated for 6 hrs by equilibrium dialysis method
recorded_metric: fraction unbound at 6 h, 2 µM

Please give the measured fraction unbound at 6 h, 2 µM for this compound: CC(C)(O)CS(=O)(=O)c1ccc2c(c1)nc(C(C)(C)C)n2CC1CCOCC1
0.786

1. CN1CC[C@H](c2c(O)cc(O)c3c(=O)cc(-c4ccccc4Cl)oc23)[C@H](O)C1
2. NC(=O)c1c(-c2ccc(Oc3ccc(Cl)cc3)cc2)nn([C@@H]2CCCN(C(=O)/C=C/CO)C2)c1N
3. O=C(NC(c1ccccc1)c1ccccc1)C1CC1
Order the entries by their reported fraction unbound at 6 h, 2 µM, beginning at the minimum. // respond by listing labels in the order requested
3, 2, 1
(3: 0.0208, 2: 0.113, 1: 1)

----------
# run_description: Total plasma concentration in Wistar Han rat at 1 to 2 mg/kg, iv infused for 10 to 20 hrs by LC-MS/MS analysis
# cond: in vivo
recorded_metric: Cp (ng/mL)

Sample records with Cp:
// Cp lookup, key: Cc1nc2cc(-c3cc(F)cc(C#N)c3)ccc2s1
31

Would you kindly share the measured Cp for Nc1noc2ccc(-c3cc(Cl)ccc3Oc3cc(F)c(S(=O)(=O)Nc4cscn4)cc3F)cc12 ?
36

So what's the measured Cp for this one? CN(C)C[C@@H](OC(=O)N1Cc2c(NC(=O)C3(C(F)(F)F)CC3)n[nH]c2C1(C)C)c1ccccc1
28

a. COCCCN1C[C@H](C)N(C(=O)N2Cc3c(NC(=O)c4ccccn4)n[nH]c3C2(C)C)C[C@H]1C
b. Oc1noc2cc(Cl)c(Cl)cc12
c. COc1ccc(-c2cc3c(C(=O)O)n[nH]c3cc2Cl)cc1
d. Cn1ncc(-c2ccc(C(=O)N(c3ncccc3Cl)[C@@H]3CCCNC3)cc2)c1C(=O)O
Ordering criterion: Cp; begin with the maximum. Quick reminder: the answer is the labels in the order asked.
b, c, d, a
